Target: T1, HLA-DR4 molecule (DRB1*0401) (human)
T1 construct: HLA class II heterodimer
Protocol Summary: competitive ELISA, tracer HA 306-318
Can you tell me IC50 for the items I'm about to list?
State the value with its unit after it.

# lookup: IC50 of CAFLSVKKQFEELTL (synthetic 15-mer) [survivin peptide 84-98]
19 µM

Find the recorded IC50 belonging to ERMAEAGFIHCPTEN (synthetic 15-mer) [survivin peptide 36-50] and report it.
17 µM

Form field: reported IC50 of GEFLKLDRERAKNKI (synthetic 15-mer) [survivin peptide 99-113]
2.13 µM

Record request: IC50 value, item AGFIHCPTENEPDLA (synthetic 15-mer) [survivin peptide 41-55]
5 µM

Field request: IC50 | item: PDLAQCFFCFKELEG (synthetic 15-mer) [survivin peptide 52-66]
22 µM

# get_value(readout='IC50', item= FEELTLGEFLKLDRE (synthetic 15-mer) [survivin peptide 93-107] )
5.5 µM

Looking for the measured IC50 of STFKNWPFLEGCACT (synthetic 15-mer) [survivin peptide 20-34] , can you help?
5.2 µM

Can you look up the measured IC50 of LTLGEFLKLDRERAK (synthetic 15-mer) [survivin peptide 96-110] for me?
1.67 µM

Please give the measured IC50 for this binder: QPFLKDHRISTFKNW (synthetic 15-mer) [survivin peptide 11-25]
45 µM

Record request: IC50 value, item ISTFKNWPFLEGCAC (synthetic 15-mer) [survivin peptide 19-33]
0.615 µM
